Values were extracted from ChEMBL document CHEMBL6109088.

assay: in vivo; conditions: male, Wistar Hannover, rat, po, 10 mg/kg
Reported property: bioavailability at 4 h (%)
Write down the numeric answer in % and omit the unit.

bioavailability at 4 h measured on `CC(C)(C)[C@H](NC(=O)C(F)(F)F)C(=O)N1C[C@H]2[C@@H]([C@H]1C(=O)N[C@H](C#N)C[C@@H]1CCNC1=O)C2(C)C` = 50

====

assay: in vivo; settings: male, cynomolgus monkey, iv, 1 mg/kg
Reported property: half-life (min)
Write down the numeric answer in min and omit the unit.

half-life measured on `CC(C)(C)[C@H](NC(=O)C(F)(F)F)C(=O)N1C[C@H]2[C@@H]([C@H]1C(=O)N[C@H](C#N)C[C@@H]1CCNC1=O)C2(C)C` = 47.4

====

test: in vivo; details: male, cynomolgus monkey, po, 100 mg/kg
Reported property: Tmax
Please append the unit to your numeric answer.

Tmax measured on `CC(C)(C)[C@H](NC(=O)C(F)(F)F)C(=O)N1C[C@H]2[C@@H]([C@H]1C(=O)N[C@H](C#N)C[C@@H]1CCNC1=O)C2(C)C` = 30 min

====

test: in vivo; details: male, Wistar Hannover, rat, iv, 1 mg/kg
Reported property: AUC(0-inf) at 4 h (ng·h/mL)
Write down the numeric answer in ng·h/mL and omit the unit.

AUC(0-inf) at 4 h measured on `CC(C)[C@H](NC(=O)C(F)(F)F)C(=O)N1C[C@H]2[C@@H]([C@H]1C(=O)N[C@@H](C[C@@H]1CCNC1=O)C(=O)c1nc3ccccc3s1)C2(C)C` = 538

====

test: in vivo; conditions: male, Wistar Hannover, rat, po, 10 mg/kg
Reported property: Cmax at 4 h (ng/mL)
Write down the numeric answer in ng/mL and omit the unit.

Cmax at 4 h measured on `CC(C)(C)[C@H](NC(=O)C(F)(F)F)C(=O)N1C[C@H]2[C@@H]([C@H]1C(=O)N[C@H](C#N)C[C@@H]1CCNC1=O)C2(C)C` = 1450

====

assay: in vivo; conditions: male, Wistar Hannover, rat, po, 10 mg/kg
Reported property: bioavailability at 4 h (%)
Write down the numeric answer in % and omit the unit.

bioavailability at 4 h measured on `CC(C)[C@H](NC(=O)C(F)(F)F)C(=O)N1C[C@H]2[C@@H]([C@H]1C(=O)N[C@@H](C[C@@H]1CCNC1=O)C(=O)c1nc3ccccc3s1)C2(C)C` = 54.3

====

test: in vivo; conditions: male, Wistar Hannover, rat, po, 10 mg/kg
Reported property: half-life at 4 h (h)
Write down the numeric answer in h and omit the unit.

half-life at 4 h measured on `CC(C)[C@H](NC(=O)C(F)(F)F)C(=O)N1C[C@H]2[C@@H]([C@H]1C(=O)N[C@@H](C[C@@H]1CCNC1=O)C(=O)c1nc3ccccc3s1)C2(C)C` = 3.39

====

assay: in vivo; settings: male, Wistar Hannover, rat, po, 10 mg/kg
Reported property: Tmax at 4 h (h)
Write down the numeric answer in h and omit the unit.

Tmax at 4 h measured on `CC(C)(C)[C@H](NC(=O)C(F)(F)F)C(=O)N1C[C@H]2[C@@H]([C@H]1C(=O)N[C@H](C#N)C[C@@H]1CCNC1=O)C2(C)C` = 1.5

====

test: in vitro; details: dog, MDCK
Quick rule for you: Papp A→B under 0.7 ×10⁻⁶ cm/s gets Criterion met, anything else gets Criterion not met.

For orientation, consider the following solved cases.
- CC(C)(C)[C@H](NC(=O)CC(F)(F)F)C(=O)N1C[C@H]2[C@@H]([C@H]1C(=O)N[C@H](C#N)C[C@@H]1CCNC1=O)C2(C)C: Criterion not met
- COc1ccc2nc(C(=O)[C@H](C[C@@H]3CCNC3=O)NC(=O)[C@@H]3[C@@H]4[C@H](CN3C(=O)[C@@H](NC(=O)C(F)(F)F)C(C)C)C4(C)C)sc2c1: Criterion not met
- COCC(=O)[C@H](C[C@@H]1CCNC1=O)NC(=O)[C@@H]1[C@@H]2[C@H](CN1C(=O)[C@@H](NC(=O)C(F)(F)F)C(C)(C)C)C2(C)C: Criterion met

Lab note: next molecule to report on.
IN: Confirm or reject: Papp A→B of `CC(C)[C@H](NC(=O)C(F)(F)F)C(=O)N1C[C@H]2[C@@H]([C@H]1C(=O)N[C@H](C#N)C[C@@H]1CCNC1=O)C2(C)C` lies strictly below 0.7 ×10⁻⁶ cm/s
OUT: Criterion not met

====

assay: in vitro; settings: dog, MDCK
Items are presented alongside their recorded Papp A→B.
Write down the numeric answer in nm/s and omit the unit.

Some solved cases for reference:
* CC(C)[C@H](NC(=O)C(F)(F)F)C(=O)N1C[C@H]2[C@@H]([C@H]1C(=O)N[C@@H](C[C@@H]1CCNC1=O)C(=O)c1nc3ccccc3o1)C2(C)C | 21
* CC(C)[C@H](NC(=O)C(F)(F)F)C(=O)N1C[C@H]2[C@@H]([C@H]1C(=O)N[C@@H](C[C@@H]1CCNC1=O)C(=O)c1nc3ccccc3s1)C2(C)C | 131
* CC(C)(C)[C@H](NC(=O)C(F)(F)F)C(=O)N1C[C@H]2[C@@H]([C@H]1C(=O)N[C@H](C#N)C[C@@H]1CCNC1=O)C2(C)C | 17.1

Next compound, Papp A→B to be filled in.
Papp A→B measured on `CNC(=O)N[C@H](C(=O)N1C[C@H]2[C@@H]([C@H]1C(=O)N[C@H](C#N)C[C@@H]1CCNC1=O)C2(C)C)C(C)(C)C` = 6.2

====

assay: in vivo; conditions: male, Wistar Hannover, rat, iv, 1 mg/kg
Reported property: half-life at 4 h (h)
Write down the numeric answer in h and omit the unit.

half-life at 4 h measured on `CC(C)(C)[C@H](NC(=O)C(F)(F)F)C(=O)N1C[C@H]2[C@@H]([C@H]1C(=O)N[C@H](C#N)C[C@@H]1CCNC1=O)C2(C)C` = 5.1

====

experiment: in vivo; settings: male, Beagle, dog, po, 10 mg/kg
Reported property: half-life (h)
Write down the numeric answer in h and omit the unit.

half-life measured on `CC(C)[C@H](NC(=O)C(F)(F)F)C(=O)N1C[C@H]2[C@@H]([C@H]1C(=O)N[C@@H](C[C@@H]1CCNC1=O)C(=O)c1nc3ccccc3s1)C2(C)C` = 4.43

====

assay: in vivo; conditions: male, Beagle, dog, po, 10 mg/kg
Reported property: Tmax (min)
Write down the numeric answer in min and omit the unit.

Tmax measured on `CC(C)[C@H](NC(=O)C(F)(F)F)C(=O)N1C[C@H]2[C@@H]([C@H]1C(=O)N[C@@H](C[C@@H]1CCNC1=O)C(=O)c1nc3ccccc3s1)C2(C)C` = 45

====

test: in vivo; conditions: male, Wistar Hannover, rat, po, 100 mg/kg
Reported property: AUC(0-inf) at 4 h
Please append the unit to your numeric answer.

AUC(0-inf) at 4 h measured on `CC(C)(C)[C@H](NC(=O)C(F)(F)F)C(=O)N1C[C@H]2[C@@H]([C@H]1C(=O)N[C@H](C#N)C[C@@H]1CCNC1=O)C2(C)C` = 18000 ng·h/mL

====

assay: in vivo; details: male, cynomolgus monkey, po, 10 mg/kg
Reported property: bioavailability (%)
Write down the numeric answer in % and omit the unit.

bioavailability measured on `CC(C)(C)[C@H](NC(=O)C(F)(F)F)C(=O)N1C[C@H]2[C@@H]([C@H]1C(=O)N[C@H](C#N)C[C@@H]1CCNC1=O)C2(C)C` = 8.5

====

assay: in vivo; details: male, Wistar Hannover, rat, po, 10 mg/kg
Reported property: half-life at 4 h (h)
Write down the numeric answer in h and omit the unit.

half-life at 4 h measured on `CC(C)(C)[C@H](NC(=O)C(F)(F)F)C(=O)N1C[C@H]2[C@@H]([C@H]1C(=O)N[C@H](C#N)C[C@@H]1CCNC1=O)C2(C)C` = 2.8

====

test: in vivo; conditions: male, Beagle, dog, iv, 1 mg/kg
Reported property: Vd (L/kg)
Write down the numeric answer in L/kg and omit the unit.

Vd measured on `CC(C)[C@H](NC(=O)C(F)(F)F)C(=O)N1C[C@H]2[C@@H]([C@H]1C(=O)N[C@@H](C[C@@H]1CCNC1=O)C(=O)c1nc3ccccc3s1)C2(C)C` = 1.1

====

assay: in vivo; settings: male, cynomolgus monkey, po, 100 mg/kg
Reported property: Tmax (h)
Write down the numeric answer in h and omit the unit.

Tmax measured on `CC(C)(C)[C@H](NC(=O)C(F)(F)F)C(=O)N1C[C@H]2[C@@H]([C@H]1C(=O)N[C@H](C#N)C[C@@H]1CCNC1=O)C2(C)C` = 1

====

assay: in vivo; details: male, cynomolgus monkey, po, 10 mg/kg
Reported property: Cmax (ng/mL)
Write down the numeric answer in ng/mL and omit the unit.

Cmax measured on `CC(C)[C@H](NC(=O)C(F)(F)F)C(=O)N1C[C@H]2[C@@H]([C@H]1C(=O)N[C@@H](C[C@@H]1CCNC1=O)C(=O)c1nc3ccccc3s1)C2(C)C` = 331
